// values below are reported growth
Test system: SN12C renal
Assay: NCI-60 one-dose screen, 48 h (100 = growth as untreated, 0 = no growth, -100 = all killed)
Conditions: 10 µM unless noted
Compounds without any hit were thinned out: in the full panel of roughly 83,000, 20% have a hit.
Numbers only; they are read as %.

- COMPOUND: "Cn1c(=O)c2c(nc(Cl)n2CCl)n(C)c1=O"
  QUANTITATIVE_READOUT: 106
- COMPOUND: "COC(=O)CCC1=C(C)C2=NC1=CC1=NC(=CC3=NC(=Cc4[nH]c(/c(=C(/C)O)c4C)=C2)C(C(C)=O)=C3C)C(C)=C1CCC(=O)OC"
  QUANTITATIVE_READOUT: 97.8
- COMPOUND: "CC/C=C/C/C=C/C/C=C/C/C=C/C/C=C/C/C=C/CCC(=O)Nc1ccn([C@@H]2O[C@H](CO)[C@@H](O)C2(F)F)c(=O)n1"
  QUANTITATIVE_READOUT: -2.1
- COMPOUND: "CCc1ccccc1-n1c(N)c(C#N)c(-c2ccc(N(C)C)cc2)c(C#N)c1=O"
  QUANTITATIVE_READOUT: 96.8
- COMPOUND: "O=C(c1ccc(Nc2nccc(NCCCCNc3ccnc4cc(Cl)ccc34)n2)cc1)N1CCCCC1"
  QUANTITATIVE_READOUT: 67.4
- COMPOUND: "COc1cccc(-c2nn(-c3ccccc3)cc2-c2ccnc(NCCNC(=O)Nc3ccc(Cl)c(Cl)c3)c2)c1"
  QUANTITATIVE_READOUT: 11.5
- COMPOUND: "COc1ccc(-c2nc(SC(C)C)nc(NNC(N)=S)c2C#N)cc1"
  QUANTITATIVE_READOUT: 55.1
- COMPOUND: "COc1cccc(/C=C/C(=O)c2c(C)nc3ccccc3c2/C=C/c2ccc(C)cc2)c1OC"
  QUANTITATIVE_READOUT: 52.1

Ask | Which value of growth has been reported for `COc1ccc(-c2ccc3c(c2)sc2nc(-c4ccc(F)cc4)cn23)cc1` in the records?
Reply | 87.9

Ask | Which value of growth has been reported for `N#Cc1c(N)nc(NCCO)nc1-c1ccc(F)cc1` in the records?
Reply | 103

Ask | Which value of growth has been reported for `COc1cc(/C=C/C(=O)c2c(C)nc3ccccc3c2C)ccc1OCCCN1CCN(C(=O)c2ccco2)CC1` in the records?
Reply | 92.5

---

System: SK-MEL-5 melanoma
Test: NCI-60 one-dose screen, 48 h
Conditions: 10 µM unless noted
Compounds without any hit were thinned out: in the full panel of roughly 83,000, 20% have a hit. Calls of active or inactive are those of the source. How the source made its calls: active means growth percent below 10; inactive means the rest.
Respond using exactly one of the listed classes: Y (active), N (inactive)

// below: answered compounds
- COMPOUND: "CC1=CN2C(=O)C3C4=C(CCCC4)SC3N=C2CN1c1c(C)cccc1C (stereo unspecified)"
  CATEGORY_LABEL: "N"
- COMPOUND: "Cn1cc(-c2csc(-c3cccc(F)c3)n2)c2cccnc21"
  CATEGORY_LABEL: "Y"
- COMPOUND: "N=C1C(c2nc(-c3ccc(Br)cc3)cs2)=C(O)CN1CC1CCCO1 (stereo unspecified)"
  CATEGORY_LABEL: "N"
- COMPOUND: "N#Cc1c(-c2ccccc2)cc(-c2ccc(Nc3nc(Nc4ccc(F)cc4)nc(Nc4ccc(F)cc4)n3)cc2)nc1N"
  CATEGORY_LABEL: "N"
- COMPOUND: "CCN(CC)CCN1CC(O)=C(c2nc(-c3ccc(Cl)cc3)cs2)C1=N"
  CATEGORY_LABEL: "Y"

Ask | # outcome recorded in this test, key = CS(=O)c1cccc(-c2ccc3nc(N)n(-c4ccc(C(F)(F)F)cc4)c(=O)c3c2)c1 (stereo unspecified)
Reply | N

Ask | # outcome recorded in this test, key = `Cc1ccc(NCCN(C)C)c2c(=O)c3ccccc3sc12`
Reply | Y

Ask | # outcome recorded in this test, key = `O=C(NCCc1ccc(O)c(O)c1)C12CC3CC(CC(C3)C1)C2`
Reply | N

Ask | # outcome recorded in this test, key = `CCCCCCCCCCCCCCCCCC1=NCCN1CCOC1=C(Cl)C(=O)c2ccccc2C1=O`
Reply | N

Ask | # outcome recorded in this test, key = CCC1(C2CCCC2)NC(=O)NC1=O (stereo unspecified)
Reply | N

Ask | # outcome recorded in this test, key = `CN(C)CCCn1c(=O)c2ccccc2c2ccccc21`
Reply | N
